- Test system: MS2 coat protein
- test-method-notes: apparent KD of MS2 coat protein; designed switch direction (-1 OFF switch, 1 ON switch): -1; higher = weaker reporter binding
- conditions-used: input ligand: FMN 200 uM
Decision: apparent KD of MS2 coat protein compared against 0.1 µM; not below it gives fulfilled, below it gives not fulfilled.

1. UAACUACAUGAGGAUCACCCAUGUCAGGAUAUGCCAUUAAAUUAACAUCAACAUACGGGUAGAAGGGACAACGU [1st #2] (Eterna round: R97, puzzle: Exclusion 1) ... not fulfilled
2. AAGUAACAUGAGGAUCACCCAUGUUAGGAUAUCUCGGCCACAGGAACGCUGUAAAGCCAGAGAAGGAGCGGGUG [Mabi] (Eterna round: R97, puzzle: Exclusion 1) ... fulfilled
3. CAAACACUGGUCCAAGCACACAUGAGGAUCACCCAUGUCGCCACAUAGGCGCCGGGAAUUAAGCUUCCGUUCGUCUG [Eternabot (L2) Solution 14] (Eterna round: R97, puzzle: Sensor, turn-off variant 1) ... fulfilled
4. CGACCACAUGUAAACUGACACAUGAGGAUCACCCAUGUCAAGCUACGUUAGACUAAGCUCGCUACUACUCGUCUUAA [Eternabot (L2) Solution 4] (Eterna round: R97, puzzle: Sensor, turn-off variant 1) ... not fulfilled
5. AAUAAUGAUAAGGAUAUUACUAGCGAUAGCUAGUGAGAAGGUAUCACAUGAGGAUCACCCAUGUGUUCCAAUAA [Ex6/6-B4] (Eterna round: R97, puzzle: Exclusion 6) ... not fulfilled

* * *

- Test system: MS2 coat protein
- test-method-notes: apparent KD of MS2 coat protein; designed switch direction (-1 OFF switch, 1 ON switch): -1; higher = weaker reporter binding
- conditions-used: input ligand: FMN 200 uM
Decision: apparent KD of MS2 coat protein compared against 100 nM; not below it gives fulfilled, below it gives not fulfilled.

1) UGUGAGCUAGGAUAUGCUUUGGGCUCGCUUUCCUUCGAUAAACUUGAGGAUCACCCAAGUAGAAGGAGCUUGCA [Mod 31 - Jieux - Exclusion 2] (Eterna round: R97, puzzle: Exclusion 2) ... not fulfilled
2) AGAGUGCUGCGAGGAUAUACAUGAGGAUCACCCAUGUUUUCGUGUGAGGCAAAGCCUCACACGAUGUAGAAGGCGCAGUACUCA [Mat - Exclusion NG 2 - Mod of JL - D36] (Eterna round: R96, puzzle: Exclusion NG 2) ... not fulfilled
3) AGCUAGUCAGGAUAUACGUAAAUGUCGAAAGACGUAUUGGGACAUGAGGAUCACCCAUGUAGAAGGGACUAGCA [Mod of Janderson's WEB Mod v.1] (Eterna round: R96, puzzle: Exclusion 2) ... fulfilled
4) AAUCUUCUAGGAUAUAUAUGGUAGCGGGAGAACCCAGUCACACAUGAGGAUCACCCAUGUAGAAGGAGAAUAGG [Eternabot (L1) Solution 87] (Eterna round: R97, puzzle: Exclusion 2) ... fulfilled
5) AGGUGUAGGUAAGGAUAUAUCUAAAACCACAUGAGGAUCACCCAUGUAGCGGGUAUCUUCGUGAGAUAGAAGGUGCACGCCGAA [Atbiasori] (Eterna round: R96, puzzle: Exclusion NG 2) ... fulfilled
6) GAGCCAUCGUGAGAUGGCUAAAUUACAUGAGGAUCACCCAUGUAGGAUAUCGAUUGCUUUGCAGUCGAGAAGGACAUGUUUAAU [JL ENG3 3.99] (Eterna round: R96, puzzle: Exclusion NG 3) ... not fulfilled
7) AAAGUGUUAGGAUAUAGGCGCAGCCAGACGCAGGAAGCGUCCUAGAAGGAACAUGAGGAUCACCCAUGUGGGCG [Eternabot (Original) Solution 41] (Eterna round: R97, puzzle: Exclusion 4) ... fulfilled
8) AGGUGUAGAGGAUAUCUCUUCUCUCACAUGAGGAUCACCCAUGUCCUAAAGACCAAGGAGAGAGAAGGCUACACCA [Omei Ex5 D6] (Eterna round: R97, puzzle: Exclusion 5) ... not fulfilled
9) AGUUCGCAGAGAGGAUAUAUAGGGUUACGGCCUAUAGAAGGUUCACGUUAGCCGCAACAUGAGGAUCACCCAUGUGCUCCGCGA [Eternabot solution 35] (Eterna round: R96, puzzle: Exclusion NG 1) ... not fulfilled
